# experimentalTarget: mTOR (human recombinant aa mTOR 1360-2549) (Homo sapiens (Human), UniProt P42345)
# Sequence (P42345 1360-2549): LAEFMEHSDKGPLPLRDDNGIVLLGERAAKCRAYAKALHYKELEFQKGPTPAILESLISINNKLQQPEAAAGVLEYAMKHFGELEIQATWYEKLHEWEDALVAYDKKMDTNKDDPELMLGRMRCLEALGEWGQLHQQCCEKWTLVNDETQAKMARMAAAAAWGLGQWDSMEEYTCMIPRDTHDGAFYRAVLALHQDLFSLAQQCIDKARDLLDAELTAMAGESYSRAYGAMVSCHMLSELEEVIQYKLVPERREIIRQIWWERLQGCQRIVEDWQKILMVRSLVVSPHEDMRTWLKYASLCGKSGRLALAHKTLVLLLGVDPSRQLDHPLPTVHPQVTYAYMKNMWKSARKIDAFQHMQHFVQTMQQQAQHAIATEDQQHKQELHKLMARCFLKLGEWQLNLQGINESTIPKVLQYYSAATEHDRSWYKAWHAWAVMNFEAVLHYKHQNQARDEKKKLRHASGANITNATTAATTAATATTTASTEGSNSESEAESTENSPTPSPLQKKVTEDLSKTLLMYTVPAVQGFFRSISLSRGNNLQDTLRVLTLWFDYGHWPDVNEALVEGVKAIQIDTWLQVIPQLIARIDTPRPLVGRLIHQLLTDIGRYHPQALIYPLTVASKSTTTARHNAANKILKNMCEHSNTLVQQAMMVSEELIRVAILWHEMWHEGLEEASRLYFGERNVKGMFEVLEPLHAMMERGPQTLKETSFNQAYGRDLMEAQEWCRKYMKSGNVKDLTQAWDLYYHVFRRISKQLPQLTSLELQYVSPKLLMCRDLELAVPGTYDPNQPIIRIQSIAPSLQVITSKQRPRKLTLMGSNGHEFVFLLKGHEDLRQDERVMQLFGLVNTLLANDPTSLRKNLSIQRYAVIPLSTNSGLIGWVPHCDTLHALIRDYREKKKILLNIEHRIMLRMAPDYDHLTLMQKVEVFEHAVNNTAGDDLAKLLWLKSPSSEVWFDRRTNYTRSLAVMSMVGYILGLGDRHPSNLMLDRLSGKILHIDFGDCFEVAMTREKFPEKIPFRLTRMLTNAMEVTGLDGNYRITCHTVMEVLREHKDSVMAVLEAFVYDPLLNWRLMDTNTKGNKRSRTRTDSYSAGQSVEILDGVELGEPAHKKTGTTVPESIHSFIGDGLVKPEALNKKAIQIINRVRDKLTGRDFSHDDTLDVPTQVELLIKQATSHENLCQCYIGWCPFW
# assayProcedure: mTOR enzymatic test by TR-FRET (phosphorylation of GFP-4EBP1)
pIC50: −log10 of the molar value.
Recorded pIC50 values for a group of compounds are listed next.
observationType: pIC50

• CCN1CC(C)(C)Oc2nc(N3CC4CCC(C3)O4)nc(-c3ccc(NC(=O)Nc4ccc(N5CCOCC5)cn4)cc3)c2C1=O = 7.44
• CCN1CC(C)(C)Oc2nc(N3CCOCC3)nc(-c3ccc(N)cc3)c2C1=O = 6.03
• CCN1CC(C)(C)Oc2nc(N3CC4CCC(C3)O4)nc(-c3ccc(Nc4nc5ccccc5[nH]4)cc3)c2C1=O = 7.24
• CCN1CC(C)(C)Oc2nc(N3CC4CCC(C3)O4)nc(-c3ccc(NC(=O)Nc4ccc(N5CCCCC5)nc4)c(F)c3)c2C1=O = 7.19
• CCN1CC(C)(C)Oc2nc(N3CC4CCC(C3)O4)nc(-c3ccc(NC(=O)OC[C@H](C)O)c(F)c3)c2C1=O = 6.54
• CCN1CC(C)(C)Oc2nc(N3CC4CCC(C3)O4)nc(-c3ccc(NC(=O)Nc4cnn(C)c4)c(F)c3)c2C1=O = 7.72
• Cc1cc(NC(=O)Nc2ccc(-c3nc(N4C5CCC4COC5)nc4c3C(=O)N(C)CC(C)(C)O4)cc2F)ccn1 = 7.17
